experiment description: Drug concentration in C57BL/6J mouse assessed as level of aglycone curcumin in bone marrow at 100 mg/kg, ip measured after 20 mins by LC-MS analysis
Format: ADME, organism-based
measurement conditions: in vivo, read-out: Ct
observed property: concentration
Put down the number, then write its unit next to it.

So what's the measured concentration for this one? COc1cc(/C=C/C(=O)CC(=O)/C=C/c2ccc(O)c(OC)c2)ccc1O
1900 nM

====

experiment description: Ratio of drug concentration in C57BL/6J mouse bone marrow to drug concentration in C57BL/6J mouse serum
Assay type: ADME
observed property: Kp
Please state the value as a number alone, without comment.

So what's the measured Kp for this one? COc1cc(/C=C/C(=O)CC(=O)/C=C/c2ccc(O)c(OC)c2)ccc1O [CURCUMIN]
3

====

experiment description: Drug concentration in C3H/HeJ mouse exhibiting decrease in GUSB activity assessed as level of aglycone curcumin in bone marrow at 100 mg/kg, ip measured after 20 mins by LC-MS analysis
Format: ADME, organism-based
measurement conditions: in vivo, read-out: Ct
observed property: concentration (nM)
Report the value in nM with no unit label.

So what's the measured concentration for this one? COc1cc(/C=C/C(=O)CC(=O)/C=C/c2ccc(O)c(OC)c2)ccc1O
500

====

experiment description: Drug concentration in C3H/HeJ mouse exhibiting decrease in GUSB activity assessed as level of aglycone curcumin in serum at 100 mg/kg, ip measured after 20 mins by LC-MS analysis
Assay type: ADME, organism-based
measurement conditions: in vivo, read-out: Ct
observed property: concentration (µM)
Report the value in µM with no unit label.

So what's the measured concentration for this one? COc1cc(/C=C/C(=O)CC(=O)/C=C/c2ccc(O)c(OC)c2)ccc1O
2.8

====

experiment description: Drug concentration in C3H/HeJ mouse exhibiting decrease in GUSB activity assessed as level of aglycone curcumin in bone marrow at 500 mg/kg administered via oral gavage measured after 30 mins by LC-MS analysis
Assay type: ADME, organism-based
measurement conditions: in vivo, 0.5 h, read-out: Ct
observed property: concentration

So what's the measured concentration for this one? COc1cc(/C=C/C(=O)CC(=O)/C=C/c2ccc(O)c(OC)c2)ccc1O
470 nM

====

experiment description: Drug concentration in C3H/HeJ mouse exhibiting decrease in GUSB activity assessed as level of curcumin-glucuronide in bone marrow at 100 mg/kg, ip measured after 20 mins by LC-MS analysis
Assay type: ADME, organism-based
measurement conditions: in vivo, read-out: Ct
observed property: concentration (nM)
Report the value in nM with no unit label.

So what's the measured concentration for this one? COc1cc(/C=C/C(=O)CC(=O)/C=C/c2ccc(O)c(OC)c2)ccc1O
2700

====

experiment description: Drug metabolism in C57BL/6J mouse assessed as level of curcumin-glucuronide in serum at 100 mg/kg, ip measured after 20 mins by LC-MS analysis
Type: ADME, organism-based
measurement conditions: in vivo, read-out: Ct
observed property: concentration
Put down the number, then write its unit next to it.

So what's the measured concentration for this one? COc1cc(/C=C/C(=O)CC(=O)/C=C/c2ccc(O)c(OC)c2)ccc1O [CURCUMIN]
92.7 µM

====

experiment description: Drug concentration in C57BL/6J mouse assessed as level of aglycone curcumin in bone marrow at 500 mg/kg administered via oral gavage measured after 30 mins by LC-MS analysis
Assay type: ADME, organism-based
measurement conditions: in vivo, 0.5 h, read-out: Ct
observed property: concentration (nM)
Report the value in nM with no unit label.

So what's the measured concentration for this one? COc1cc(/C=C/C(=O)CC(=O)/C=C/c2ccc(O)c(OC)c2)ccc1O [CURCUMIN]
1140

====

experiment description: AUC (0 to infinity) in C57BL/6J mouse serum at 500 mg/kg administered via oral gavage measured after 30 mins by LC-MS analysis
Assay type: ADME, organism-based
Set-up: dose 500 mg/kg, route oral, time infinity
observed property: AUC(0-inf) (µM·h)
Report the value in µM·h with no unit label.

So what's the measured AUC(0-inf) for this one? COc1cc(/C=C/C(=O)CC(=O)/C=C/c2ccc(O)c(OC)c2)ccc1O [CURCUMIN]
488

====

experiment description: Drug concentration in mps/mps mutant mouse assessed as level of aglycone curcumin in bone marrow at 100 mg/kg, ip measured after 20 mins by LC-MS analysis
Format: ADME, organism-based
measurement conditions: in vivo, read-out: Ct
observed property: concentration (nM)
Report the value in nM with no unit label.

So what's the measured concentration for this one? COc1cc(/C=C/C(=O)CC(=O)/C=C/c2ccc(O)c(OC)c2)ccc1O
400

====

experiment description: Drug concentration in C57BL/6J mouse assessed as level of aglycone curcumin in serum at 500 mg/kg administered via oral gavage measured after 30 mins by LC-MS analysis
Format: ADME, organism-based
measurement conditions: in vivo, 0.5 h, read-out: Ct
observed property: concentration (nM)
Report the value in nM with no unit label.

So what's the measured concentration for this one? COc1cc(/C=C/C(=O)CC(=O)/C=C/c2ccc(O)c(OC)c2)ccc1O
170

====

experiment description: Cmax in C57BL/6J mouse serum at 500 mg/kg administered via oral gavage measured after 30 mins by LC-MS analysis
Format: ADME, organism-based
Set-up: dose 500 mg/kg, route oral
observed property: Cmax (µM)
Report the value in µM with no unit label.

So what's the measured Cmax for this one? COc1cc(/C=C/C(=O)CC(=O)/C=C/c2ccc(O)c(OC)c2)ccc1O
106

====

experiment description: Drug metabolism in C57BL/6J mouse assessed as level of curcumin-glucuronide in bone marrow at 100 mg/kg, ip measured after 20 mins by LC-MS analysis
Type: ADME, organism-based
measurement conditions: in vivo, read-out: Ct
observed property: concentration (nM)
Report the value in nM with no unit label.

So what's the measured concentration for this one? COc1cc(/C=C/C(=O)CC(=O)/C=C/c2ccc(O)c(OC)c2)ccc1O [CURCUMIN]
1300

====

experiment description: Drug metabolism in C57BL/6J mouse assessed as level of curcumin-glucuronide in serum at 500 mg/kg administered via oral gavage measured after 30 mins by LC-MS analysis
Format: ADME, organism-based
measurement conditions: in vivo, 0.5 h, read-out: Ct
observed property: concentration (µM)
Report the value in µM with no unit label.

So what's the measured concentration for this one? COc1cc(/C=C/C(=O)CC(=O)/C=C/c2ccc(O)c(OC)c2)ccc1O [CURCUMIN]
82.7

====

experiment description: Drug metabolism in C3H/HeJ mouse exhibiting decrease in GUSB activity assessed as level of curcumin-glucuronide in serum at 500 mg/kg administered via oral gavage measured after 30 mins by LC-MS analysis
Format: ADME, organism-based
measurement conditions: in vivo, 0.5 h, read-out: Ct
observed property: concentration

So what's the measured concentration for this one? COc1cc(/C=C/C(=O)CC(=O)/C=C/c2ccc(O)c(OC)c2)ccc1O
80 µM

====

experiment description: Drug metabolism in C57BL/6J mouse assessed as level of curcumin-glucuronide in bone marrow at 500 mg/kg administered via oral gavage measured after 30 mins by LC-MS analysis
Assay type: ADME, organism-based
measurement conditions: in vivo, 0.5 h, read-out: Ct
observed property: concentration (nM)
Report the value in nM with no unit label.

So what's the measured concentration for this one? COc1cc(/C=C/C(=O)CC(=O)/C=C/c2ccc(O)c(OC)c2)ccc1O
360

====

experiment description: Tmax in C57BL/6J mouse serum at 500 mg/kg administered via oral gavage measured after 30 mins by LC-MS analysis
Type: ADME, organism-based
observed property: Tmax
Put down the number, then write its unit next to it.

So what's the measured Tmax for this one? COc1cc(/C=C/C(=O)CC(=O)/C=C/c2ccc(O)c(OC)c2)ccc1O
30 min

The measured values listed here are drawn from ChEMBL document CHEMBL4414545.
